Source listed as patent US20150368300A1.

molecular target: AF9 (497-568), recombinant C-terminal domain of human AF9 (human, UniProt P42568); assay: competitive SPR; peptide pre-incubated with AF9 (500 nM), over immobilised Mocr-DOT1L (826-1095)
// NB: equality with 30 µM counts as Not fulfilled; only IC50 strictly below is Fulfilled

Reference set, count: 5
Ac-LPIAIPLSTV-NH2 [S868A, alanine mutated DOT1L 10mer peptide]; Fulfilled
Ac-LPISIPLATV-NH2 [S872A, alanine mutated DOT1L 10mer peptide]; Fulfilled
Ac-LPASIPLSTV-NH2 [I867A, alanine mutated DOT1L 10mer peptide]; Not fulfilled
Ac-LAISIPLSTV-NH2 [P866A, alanine mutated DOT1L 10mer peptide]; Fulfilled
Ac-LPISIPL-NH2 [DOT1L 7 mer peptide, Ac-LPISIPL-NH2 (865-871)]; Fulfilled

Alright, here's another binder for you.
Prompt line: Quick check: does Ac-APISIPLSTV-NH2 [L865A, alanine mutated DOT1L 10mer peptide] have IC50 under 30 µM?
Response line: Not fulfilled
